- EXPERIMENTAL DETAILS: Toxicity liver stage against HepG2, at 10uM
- Format: cell-based
- Set-up: test concentration 10 uM, cell line HepG2-A16-CD81EGFP
- MEASUREMENT CONTEXT: human, HepG2-A16-CD81EGFP cells; read-out: INHIBITION
OUTCOME MEASURE: cytotoxicity at 10 µM
Just the number plus its unit, please.

Entry CS(=O)(=O)N[C@@H]1CN(C(=O)c2cccnc2)[C@@H]2CCCO[C@@H]21 has what cytotoxicity at 10 µM?
-81.8%

Entry CNC(=O)c1sc2ccccc2c1CC1CCCN1Cc1cnc(C)s1 (stereo unspecified) has what cytotoxicity at 10 µM?
2.59%

Entry COCCCNC(=O)C1CCN(CC2(O)CCC(C)CC2)CC1 (stereo unspecified) has what cytotoxicity at 10 µM?
21.6%

----------
Known cytotoxicity at 10 µM of a selection of compounds
- EXPERIMENTAL DETAILS: Toxicity liver stage against HepG2, at 10uM
- Assay type: cell-based
- Set-up: test concentration 10 uM, cell line HepG2-A16-CD81EGFP
- MEASUREMENT CONTEXT: human, HepG2-A16-CD81EGFP cells; read-out: INHIBITION
Just the number please, in %, no unit attached.

These recorded examples may help you get a feel for the data.
compound=CCN(CC)C(=O)N1CCN(Cc2cnc(C)nc2)[C@H]2CS(=O)(=O)C[C@H]21 outcome_measure="cytotoxicity at 10 µM" display_unit=% quantitative_result=-8.84
compound=CCC(=O)N1CCC(c2ncncc2C)CC1 outcome_measure="cytotoxicity at 10 µM" display_unit=% quantitative_result=-11.5
compound="CC(C)c1nccn1CCC(=O)N1CCCCC1c1ccn[nH]1 (configuration not stated)" outcome_measure="cytotoxicity at 10 µM" display_unit=% quantitative_result=6.16
compound="CCCOc1cccc(CNC(=O)CN2CCN(C)CC2C)c1 (configuration not stated)" outcome_measure="cytotoxicity at 10 µM" display_unit=% quantitative_result=-7.57
compound=O=C(c1ccc(F)cc1F)N1CCN(C(=O)C2CCCCC2)CC1 outcome_measure="cytotoxicity at 10 µM" display_unit=% quantitative_result=-0.876
compound=CCNC(=O)N1CCN(c2nc3ccccc3n2C)CC1 outcome_measure="cytotoxicity at 10 µM" display_unit=% quantitative_result=0.739

Entry CCCS(=O)(=O)N1CCC(NC(=O)c2ccc(Cl)s2)CC1 has what cytotoxicity at 10 µM?
22.4

Entry Cc1cc(F)ccc1CN1CCC(O)(CN2CCCCC2)C1 (configuration not stated) has what cytotoxicity at 10 µM?
14.8

Entry c1cncc(CN2CCC3(CC2)CC(c2cccnc2)CO3)c1 (configuration not stated) has what cytotoxicity at 10 µM?
0.851

Entry Cc1nc(C)c(C(=O)Nc2cccc(CN3CCC(CO)CC3)c2)o1 has what cytotoxicity at 10 µM?
-154

Entry O=S(=O)(CCNCc1ccc2c(c1)CCO2)N1CCOCC1 has what cytotoxicity at 10 µM?
-9.61

Entry Cc1ccc(-c2cc(C(=O)NCCCc3csc(N)n3)[nH]n2)s1 has what cytotoxicity at 10 µM?
81.7

Entry O=C(c1ccco1)N1CC[C@@H]2O[C@@H](COCC3CCOCC3)CC[C@@H]21 has what cytotoxicity at 10 µM?
1.95

----------
Known cytotoxicity at 10 µM of a selection of molecules
- EXPERIMENTAL DETAILS: Toxicity liver stage against HepG2, at 10uM
- Assay type: cell-based
- Set-up: test concentration 10 uM, cell line HepG2-A16-CD81EGFP
- MEASUREMENT CONTEXT: human, HepG2-A16-CD81EGFP cells; read-out: INHIBITION
Just the number please, in %, no unit attached.

These recorded examples may help you get a feel for the data.
molecule="CCc1ncc(C(=O)N2CCCCC2Cn2cccn2)s1 (stereo not given)" display_unit=% quantitative_result=-2.48
molecule="CCOc1ccc(CSC(C)c2nc(C)no2)nc1 (stereo not given)" display_unit=% quantitative_result=-9.32
molecule=COc1cc(C(=O)N2CCC(Nc3cccnc3)CC2)ccc1C display_unit=% quantitative_result=-134
molecule="CN(C)CCNC(=O)c1sc2ccccc2c1C1CCC(CN)CC1 (stereo not given)" display_unit=% quantitative_result=-15.3
molecule=CCOCC(=O)N1CC[C@H]2[C@@H]1CCC(=O)N2Cc1csc(C)n1 display_unit=% quantitative_result=-85.2

Entry CC(CNc1nccc(C(C)C)n1)Oc1cccnc1 (stereo not given) has what cytotoxicity at 10 µM?
4.34

Entry COC(=O)CCNC(=O)c1cnc(Cc2ccc(F)cc2)s1 has what cytotoxicity at 10 µM?
-5.87
